Experimental System: Aβ fibrils (Homo sapiens, UniProt P05067)
Sequence (P05067 672-711): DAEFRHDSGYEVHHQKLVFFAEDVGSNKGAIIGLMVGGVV
Protocol Details: Fluorescent properties of ligand-Aβ fibril complex
Assay type: physicochemical
Recorded Fluorescence quantum yield Ligand + Aβ, one value per entry.
Kindly provide the number alone.

In the examples that follow, each entry is paired with its recorded Fluorescence quantum yield Ligand + Aβ.
Compound Structure	Experimental System	Fluorescence quantum yield Ligand + Aβ
O=C(O)c1ccc(-c2ccc(/C=C/C=C3C(=O)c4ccccc4C3=O)cc2)s1	Aβ fibrils (Homo sapiens, UniProt P05067)	0.2058
O=C(O)c1ccc(-c2ccc(/C=C/C=C3\Cc4ccc(O)cc4C3=O)cc2)cc1	Aβ fibrils (Homo sapiens, UniProt P05067)	0.2498
COc1ncc(-c2ccc(/C=C3/Cc4ccccc4C3=O)s2)c(OC)n1	Aβ fibrils (Homo sapiens, UniProt P05067)	0.1130
COc1cc(/C=C/C=C2C(=O)c3ccccc3C2=O)ccc1O	Aβ fibrils (Homo sapiens, UniProt P05067)	0.1419

Next up:
Qu. Aβ fibrils (Homo sapiens, UniProt P05067) / Fluorescence quantum yield Ligand + Aβ / CN(C)c1ccc(/C=C/C=C2\Cc3ccccc3C2=O)cc1 : value?
Ans. 0.1465
